Experiment: Cmax in F344/DuCrlCrlj rat at 50 mg/kg, po via gavage measured on day 28 post dose
Format: ADME, organism-based
Design: dose 50 mg/kg, route oral
Details: in vivo
Quantity Name: Cmax (µg/mL)
Write the answer as a number in µg/mL, unit excluded.

In: Name the recorded Cmax of the molecule listed here: CN(CCOc1ccc(CC2SC(=O)NC2=O)cc1)c1ccccn1 (stereo unspecified) [ROSIGLITAZONE]
Out: 67.6

====

Molecular target: Peroxisome proliferator-activated receptor gamma (Homo sapiens)
Sequence (P37231 whole entry, the tested form may be a part): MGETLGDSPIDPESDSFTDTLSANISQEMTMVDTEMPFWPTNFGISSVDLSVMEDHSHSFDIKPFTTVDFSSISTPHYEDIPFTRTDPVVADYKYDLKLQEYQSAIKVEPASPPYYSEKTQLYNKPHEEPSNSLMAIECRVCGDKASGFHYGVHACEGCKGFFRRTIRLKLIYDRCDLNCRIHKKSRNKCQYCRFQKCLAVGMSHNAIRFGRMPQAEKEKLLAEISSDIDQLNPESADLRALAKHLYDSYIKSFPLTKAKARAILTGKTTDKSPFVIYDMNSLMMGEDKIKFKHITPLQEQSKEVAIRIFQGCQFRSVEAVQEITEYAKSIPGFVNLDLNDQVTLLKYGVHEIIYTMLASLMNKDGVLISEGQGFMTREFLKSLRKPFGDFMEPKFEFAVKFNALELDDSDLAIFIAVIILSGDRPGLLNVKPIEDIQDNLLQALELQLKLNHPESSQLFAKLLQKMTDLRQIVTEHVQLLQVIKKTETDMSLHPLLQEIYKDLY
Assay: Agonist activity at recombinant human GAL4-DBD fused PPARgamma LBD expressed in COS7 cells after 24 hrs by luciferase reporter gene assay
Hi! Just check whether EC50 is below 400 nM. Below gives 1, equal or above gives -1.

Input Smiles: Cn1c(COc2cccc(C(=O)O)c2)nc2ccc(Oc3ccc(Cl)cn3)cc21
Label Value: 1
--
Input Smiles: Cc1cccnc1Oc1ccc2nc(COc3cccc(C(=O)O)c3)n(C)c2c1
Label Value: 1
--
Input Smiles: Cc1cc(C)cc(Oc2ccc3nc(COc4cccc(C(=O)O)c4)n(C)c3n2)c1
Label Value: 1
--
Input Smiles: Cn1c(COc2cccc(C(=O)O)c2)nc2ccc(Oc3cc(Cl)ccn3)cc21
Label Value: -1

Then this compound:
In: Is EC50 of Cc1ccnc(Oc2ccc3nc(COc4cccc(C(=O)O)c4)n(C)c3c2)c1 strictly below 400 nM?
Out: -1
